B1: TRIM39 (parent)
chain: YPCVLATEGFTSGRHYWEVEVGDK

# Variants of: B1
# Experimental details: protein stability index of a GFP-peptide fusion (GPS, HEK-293T) (PSI 1-6); higher = more stable;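 note: lentivirally expressed fusions sorted by FACS into six bins by GFP to DsRed ratio, PSI derived from sequencing read proportions per bin multiplied by bin number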
# Condition set: c terminus: a fixed tail appended
Experimental endpoint: protein stability index
The answer should be a number; do not append a unit.

Previously resolved entries follow.
1) G22A :: 2.05
2) Y16R :: 2.02
3) R14K :: 1.69

Input V21N . Output protein stability index: 2.03

Input T11H . Output protein stability index: 1.71

Input A6F . Output protein stability index: 1.27

Input G13R . Output protein stability index: 2.09

Input S12K . Output protein stability index: 1.95

Input R14H . Output protein stability index: 1.71
